Exercise: state measured logD for each of the compounds provided.
- experiment-summary: Partition coefficient, log D at pH 7.4
- experimental-context: octanol/water

Which measured logD value corresponds to CC1(C)[C@H]2CC=C(CN3CCC(Nc4nc(-c5ccc(Cl)c(Cl)c5)cs4)CC3)[C@@H]1C2 ?
> 5

// lookup logD for CC1(C)[C@H]2CC=C(CN3CCC(N4CCN(c5cc(C(F)(F)F)cc(C(F)(F)F)c5)C4=O)CC3)[C@@H]1C2
> 5.5

Look up logD for this compound: CN(c1nc2ccccc2s1)C1CCN(CC2=CC[C@H]3C[C@@H]2C3(C)C)CC1
> 5

Quick one: logD of CC1(C)[C@H]2CC=C(CN3CCC(N4CC(=O)N(c5cc(C(F)(F)F)cc(C(F)(F)F)c5)C4=O)CC3)[C@@H]1C2 ?
> 5.5

So what's the measured logD for this one? CC1(C)[C@H]2CC=C(CN3CCC(Nc4nc5ccccc5s4)CC3)[C@@H]1C2
> 5

Need logD, item CN(c1nc2cccc(Cl)c2s1)C1CCN(CC2=CC[C@H]3C[C@@H]2C3(C)C)CC1
> 5

Dear colleague, I am looking for the recorded logD of the following compound: CC1(C)[C@H]2CC=C(CN3CCC(Nc4nc(-c5cc(C(F)(F)F)cc(C(F)(F)F)c5)cs4)CC3)[C@@H]1C2
> 5

Query (compound): CC1(C)[C@H]2CC=C(CN3CCC(Nc4nc5ccc(Br)cc5s4)CC3)[C@@H]1C2 ; field requested: logD
> 5
